Biological target: Glycogen synthase kinase-3 alpha (Homo sapiens, UniProt P49840)
Sequence (P49840 whole entry): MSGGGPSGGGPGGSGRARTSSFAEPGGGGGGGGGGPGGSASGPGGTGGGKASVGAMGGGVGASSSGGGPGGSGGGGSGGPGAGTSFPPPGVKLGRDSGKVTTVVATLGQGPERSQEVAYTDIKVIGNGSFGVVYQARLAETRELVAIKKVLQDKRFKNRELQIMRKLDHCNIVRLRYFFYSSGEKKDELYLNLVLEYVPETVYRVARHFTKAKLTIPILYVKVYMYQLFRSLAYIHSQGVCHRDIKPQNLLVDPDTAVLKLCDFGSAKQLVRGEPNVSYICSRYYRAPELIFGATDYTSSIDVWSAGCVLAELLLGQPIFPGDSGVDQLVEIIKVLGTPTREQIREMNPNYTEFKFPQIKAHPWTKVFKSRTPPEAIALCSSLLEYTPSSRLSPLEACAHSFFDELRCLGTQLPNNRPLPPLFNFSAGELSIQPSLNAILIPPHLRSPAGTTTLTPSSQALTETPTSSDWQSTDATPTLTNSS
Experiment: Inhibition of human recombinant GSK3alpha
Reported pIC50 values follow for various compounds
The value called pIC50 is obtained by taking minus log10 of the concentration in mol/L.

Quick check: pIC50 of `N#Cc1ccc(CSc2nnc(-c3ccc4c(c3)OCO4)o2)cc1` ? 7.82

Entry under review: `COC[C@H]1COc2ccc(-c3nnc(SCc4ccc(-c5ccccc5C#N)cc4)o3)cc2O1` . Reported pIC50? 7.82

Can you share its pIC50? I mean this compound: `N#Cc1cccc(CSc2nnc(-c3ccncc3)o2)c1` 5.49
